Origin of values: patent US20190284262A1

# Subject Of Test: T1, Foxp3-7 peptide/HLA-A*02:01 complex on the cell surface (human)
# T1 construct: also called Foxp3-7/HLA-A2 complex
# Assay Overview: flow cytometry, phage on T2 + Foxp3-7 peptide; secondary only 116, unstained 93.8
# reported Median:FITC-A; entries follow
Form rule: numeric answer, no unit written next to it.

EXT017-17 scFv phage clone (scFv, fusion to the phage coat protein not described; also called EXT017-17 phage; phage clone #17) scFv: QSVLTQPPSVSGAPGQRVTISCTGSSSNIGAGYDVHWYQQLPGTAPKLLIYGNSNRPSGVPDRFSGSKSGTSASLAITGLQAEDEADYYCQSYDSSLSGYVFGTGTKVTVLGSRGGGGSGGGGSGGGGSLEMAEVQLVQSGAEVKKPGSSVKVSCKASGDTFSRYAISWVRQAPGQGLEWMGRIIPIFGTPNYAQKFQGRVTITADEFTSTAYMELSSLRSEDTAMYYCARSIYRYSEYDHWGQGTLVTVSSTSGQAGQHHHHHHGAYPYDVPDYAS; 745

Prompt: Query: Median:FITC-A; subject: EXT017-26 scFv phage clone (scFv, also called phage clone #26) scFv: SYVLTQPPSVSVAPGQTARITCGGTDIRRKTVHWYQQKPGLAPVLVLYDDSDRPSGIPERFSGSNSGNTATLTISRVEGGDEADYYCQVWDNDNDHYVFGPGTKVTVLGSRGGGGSGGGGSGGGGSLEMAEVQLVQSGAEVKKPGASVKVSCKASGYTFTNYYIHWVRQTPGEGLEWMGIIRPSGGNTNYAQKFQGRVTMTRDTSTRTVYMELSSLRSEDTAVYYCARSWDTFSDEWGQGTLVTVSSTSGQAGQHHHHHHGAYPYDVPDYAS
Response: 410

Prompt: Follow-up item: EXT017-21 scFv phage clone (scFv, also called phage clone #21) scFv: SYELTQPPSVSVAPGQTASMTCGGNNIGSKSVHWYQQKPSQAPVMVVHDDSERPSGIPERISGSKSGNTATLTISRVEAGDEADYYCQVWDSSSDHVIFGGGTKLTVLGSRGGGGSGGGGSGGGGSLEMAQVQLVQSGAEVKKPGASVKVSCKASGYTFTNYYIHWVRQAPGQGLEWMGIIRPSGGITNYAQKFQGRVSMTRDTSTSTVYMELSSLRSEDTAVYYCARSWMSDSYYDGWGQGTLVTVSSTSGQAGQHHHHHHGAYPYDVPDYAS
Response: 428
